Assay: Cytotoxicity against human RPE cells assessed as cell survival rate incubated for 3 days by methylene blue staining based colorimetric assay
Format: toxicity
Measured metric: IC50 at 3 days

Q: Could you share which IC50 at 3 days value was measured for COc1ccc(NC(=O)CCCCCCNC(=O)C(O)(O)C(F)(F)F)cc1 ?
Ans: > 30 µM

----------
Assay: Cytotoxicity against human WI-38 cells assessed as cell survival rate incubated for 3 days by methylene blue staining based colorimetric assay
Format: toxicity
Measured metric: IC50 at 3 days

Q: Could you share which IC50 at 3 days value was measured for COc1ccc(NC(=O)CCCCCCNC(=O)C(O)(O)C(F)(F)F)cc1 ?
Ans: > 30 µM

----------
Test system: HeLa
Assay: cells
Format: functional, cell-based
Condition notes: Homo sapiens, 72 h
Description: Anticancer activity against human HeLa cells assessed as cell growth inhibition incubated for 3 days by methylene blue staining based colorimetric assay
Measured metric: IC50

Q: Could you share which IC50 value was measured for O=C(CCCCCCNC(=O)C(O)(O)C(F)(F)F)Nc1nc2ccccc2s1 ?
Ans: 1520 nM

----------
System: Panel NCI-60 (60 carcinoma cell lines)
Assay: Anticancer activity against human Panel NCI-60 (60 carcinoma cell lines) cells assessed as cell growth inhibition incubated for 3 days by methylene blue staining based colorimetric assay relative to control
Assay type: functional
Condition notes: 72 h, time 3 day
Measured metric: GI50
Include the unit after the number when you answer.

Here are 3 molecules together with their reported answers.
Structure smiles string: COc1ccc2sc(NC(=O)CCCCCCNC(=O)C(O)(O)C(F)(F)F)nc2c1
GI50: 1.23 µM
//
Structure smiles string: O=C(CCCCCCNC(=O)C(O)(O)C(F)(F)F)Nc1ccc(Cl)cc1
GI50: 5.13 µM
//
Structure smiles string: O=C(CCCCCCNC(=O)C(O)(O)C(F)(F)F)Nc1nc2ccccc2s1
GI50: 3.39 µM

Q: Notebook entry, Panel NCI-60 (60 carcinoma cell lines) assay: GI50 of O=C(CCCCCCNC(=O)C(O)(O)C(F)(F)F)Nc1ccc(Br)cc1 = ?
Ans: 3.16 µM

----------
Test system: HT-1080
Assay: Anticancer activity against human HT-1080 cells assessed as cell growth inhibition incubated for 3 days by methylene blue staining based colorimetric assay
Format: functional
Condition notes: HT-1080, 72 h
Measured metric: pIC50
Give bare numbers, as −log10 of the molar value.

Structure smiles string: O=C(CCCCCCC(=O)Nc1ccccc1)NO
pIC50: 5.45

Structure smiles string: COc1ccc2sc(NC(=O)CCCCCCNC(=O)C(O)(O)C(F)(F)F)nc2c1
pIC50: 5.64

Next:
Q: Could you share which pIC50 value was measured for O=C(CCCCCCNC(=O)C(O)(O)C(F)(F)F)Nc1nc2ccccc2s1 ?
Ans: 5.58

----------
Assay: Cytotoxicity against human WI-38 cells assessed as cell survival rate at 30 uM incubated for 3 days by methylene blue staining based colorimetric assay
Type: toxicity
Condition notes: time 3 day, read-out: Activity
Measured metric: viability at 72 h, 30 µM

Q: Could you share which viability at 72 h, 30 µM value was measured for COc1ccc(NC(=O)CCCCCCNC(=O)C(O)(O)C(F)(F)F)cc1 ?
Ans: > 80%
